Tested on: mRNA expression in cardiovascular tissues
Assay: Affymetrix GeneChip mRNA expression profiling of monkey tissues (iliac vein, pulmonary vein, aorta, carotid artery, heart) after two-week oral-gavage treatment
Conditions: iliac vein; group average (Vioxx without A60055)
assayEndpoint: TCIRG1 (204158_s_at) mRNA expression, Avg fold changes vs control (fold)
Give the number; fold is assumed, so skip it.

Record excerpt, results attached:
Just so you know, measured TCIRG1 (204158_s_at) mRNA expression, Avg fold changes vs control for Cc1ccc(-c2cc(C(F)(F)F)nn2-c2ccc(S(N)(=O)=O)cc2)cc1 [Celebrex] came out at 0.9

Just so you know, measured TCIRG1 (204158_s_at) mRNA expression, Avg fold changes vs control for CS(=O)(=O)c1ccc(C2=C(c3ccccc3)C(=O)OC2)cc1 [Vioxx®, rofecoxib] came out at 1.0

Just so you know, measured TCIRG1 (204158_s_at) mRNA expression, Avg fold changes vs control for Cc1ccc(Nc2c(F)cccc2Cl)c(CC(=O)O)c1 [COX189, Lumiracoxib] came out at 1.0

Further cases:
Just so you know, measured TCIRG1 (204158_s_at) mRNA expression, Avg fold changes vs control for O=C(O)Cc1ccccc1Nc1c(Cl)cccc1Cl [Voltaren] came out at 1.0

---

System: mRNA expression in cardiovascular tissues
Assay: Affymetrix GeneChip mRNA expression profiling of monkey tissues (iliac vein, pulmonary vein, aorta, carotid artery, heart) after two-week oral-gavage treatment
Settings: iliac vein; group average (Vioxx without A60055)
Entries and their HLA-A (213932_x_at) mRNA expression, Avg fold changes vs control
Could you kindly put the unit after your number?

The observed HLA-A (213932_x_at) mRNA expression, Avg fold changes vs control for Cc1ccc(-c2cc(C(F)(F)F)nn2-c2ccc(S(N)(=O)=O)cc2)cc1 [Celebrex] when tested with mRNA expression in cardiovascular tissues stands at 1.3 fold

The observed HLA-A (213932_x_at) mRNA expression, Avg fold changes vs control for Cc1ccc(Nc2c(F)cccc2Cl)c(CC(=O)O)c1 [COX189, Lumiracoxib] when tested with mRNA expression in cardiovascular tissues stands at 1.2 fold

The observed HLA-A (213932_x_at) mRNA expression, Avg fold changes vs control for CS(=O)(=O)c1ccc(C2=C(c3ccccc3)C(=O)OC2)cc1 [Vioxx®, rofecoxib] when tested with mRNA expression in cardiovascular tissues stands at 1.2 fold

For the next question, use this molecule.
The observed HLA-A (213932_x_at) mRNA expression, Avg fold changes vs control for O=C(O)Cc1ccccc1Nc1c(Cl)cccc1Cl [Voltaren] when tested with mRNA expression in cardiovascular tissues stands at 1.1 fold

---

Test system: mRNA expression in cardiovascular tissues
Test: Affymetrix GeneChip mRNA expression profiling of monkey tissues (iliac vein, pulmonary vein, aorta, carotid artery, heart) after two-week oral-gavage treatment
Conditions: iliac vein; group average (Vioxx without A60055)
Entries and their BTN2A2 (205298_s_at) mRNA expression, Avg fold changes vs control
Give the number; fold is assumed, so skip it.

Just so you know, measured BTN2A2 (205298_s_at) mRNA expression, Avg fold changes vs control for "Cc1ccc(-c2cc(C(F)(F)F)nn2-c2ccc(S(N)(=O)=O)cc2)cc1" came out at 1.2

Just so you know, measured BTN2A2 (205298_s_at) mRNA expression, Avg fold changes vs control for "Cc1ccc(Nc2c(F)cccc2Cl)c(CC(=O)O)c1" came out at 1.3

Just so you know, measured BTN2A2 (205298_s_at) mRNA expression, Avg fold changes vs control for "O=C(O)Cc1ccccc1Nc1c(Cl)cccc1Cl" came out at 1.1

Just so you know, measured BTN2A2 (205298_s_at) mRNA expression, Avg fold changes vs control for "CS(=O)(=O)c1ccc(C2=C(c3ccccc3)C(=O)OC2)cc1" came out at 1.1

The reported numbers originate from patent US9738932B2.
